# Test system: Plasmodium falciparum
# EXPERIMENTAL_DETAILS: Calibr Malaria Delayed Death Assay SOP
# Type: functional, organism-based
# Set-up: scale not given: in the data most compounds retested in dose-response had high values
# CONDITION: concentration 4.99e-06 (unit not given; other assays of the set use mol/L)
In all, about 38,000 compounds went through this assay and about 1,200 (3.2%) showed an effect of 50% or more. The median lay at about -58%. Many of the other results were omitted from the sample, so strong results are more common in it than they were.
Please respond with reported Percent Effect for every item in the list.
Give bare numbers, in %.

Below: 2 compounds and their reported Percent Effect.
• N#Cc1c(SCCN2CCOCC2)sc2c(O)cc(O)nc12 = 20.53
• CC(=O)N1CCC(=O)N(C2CCCC2)Cc2ccccc21 = -73.21

// input: 5 compounds below; output: Percent Effect for each
1. CCN(CC1CN(Cc2nc(C3CC3)no2)CCO1)c1cccnn1 (stereo not given)
2. O=C(CN(CC1CCC1)CC(F)(F)F)N1CCCC1
3. COC(=O)CN1Cc2cc3c(cc2NCCC1=O)OCO3
4. CCN(CC)C(CNS(=O)(=O)c1ccc(C(=O)NC)cc1)c1ccco1 (stereo not given)
5. O=C(O)C(F)(F)F.O[C@@H]1CCN(CC2CCOC2)[C@H]1Cc1ccccc1 (stereo not given in full)

[72.53, -123.3, -54.83, -34.47, -110.3]

====

# Tested on: Plasmodium falciparum
# EXPERIMENTAL_DETAILS: Calibr Malaria Delayed Death Assay SOP
# Assay type: functional, organism-based
# Set-up: scale not given: in the data most compounds retested in dose-response had high values
# CONDITION: concentration 4.99e-06 (unit not given; other assays of the set use mol/L)
The campaign covered roughly 38,000 compounds. About 1,200 (3.2%) showed an effect of 50% or more. The median lay at about -58%. For the sample, strong results were picked, then their nearest neighbours and some compounds at random.
MEASURE_NAME: Percent Effect (%)
Give bare numbers, in %.

Example entries begin here.
• CCCn1cc(NC(=O)c2ccncc2)ccc1=O = -98.41
• O=C(C[C@@H]1COC[C@H]2CN(Cc3ccccc3)C[C@@H]12)N1CCCC1.O=C(O)C(F)(F)F = -13.07
• CCn1nc(C)c2ccn(CC(=O)NC(C)C)c(=O)c21 = -79.05
• Cc1ccc(C(=O)N2CC(Oc3ccccc3C)C2)s1 = -70.19
• Cc1c(C(=O)N2CCOCC2)n(C)c2ccc(Cl)cc12.Cl = -79.72

Lab note: each compound below needs its Percent Effect filled in.
1. CC(NC(=O)NCC1(c2ccc(Cl)cc2)CC1)c1nncn1C (stereo not drawn)
2. Cc1cc(NC(=O)Cc2ccc3c(c2)OCO3)n(C)n1
3. C[C@@H]1CN(C(=O)c2cccc(F)c2)C[C@]12CCN(c1ccsc1)C2=O

[-41.57, -77.02, -98.41]

====

# Tested on: Plasmodium falciparum
# EXPERIMENTAL_DETAILS: Calibr Malaria Delayed Death Assay SOP
# Assay type: functional, organism-based
# Parameters: scale not given: in the data most compounds retested in dose-response had high values
# CONDITION: concentration 4.99e-06 (unit not given; other assays of the set use mol/L)
Among all 38,000 compounds or so, about 1,200 (3.2%) showed an effect of 50% or more. The median lay at about -58%. The full list was thinned out, with strong results kept by preference.
Cut-off 50% on Percent Effect: below means True, at or above means False.

Worked examples follow.
- CCCS(=O)(=O)N1C[C@H]2C[C@H](C(=O)Nc3cccnc3)[C@@H](C1)O2: True
- CCN1CC2(CC1=O)CN(C(=O)c1ccco1)CCN(C(=O)C(C)C)C2 (stereo not given): True
- Cc1ccc(CN2CC[C@@]3(O)CCN(S(=O)(=O)N(C)C)C[C@H]3C2)cc1C: False

Find out if reported Percent Effect for "CC(C)c1nccc(C2(c3ccccc3Cl)CCNCC2)n1" is less than 50%
False

A record lists Cc1cccnc1CNC(=O)N(CCCO)C1CCc2ccccc21 (stereo not given) . Is its Percent Effect below 50%?
True
